molecular target: VEGF165 (recombinant human vascular endothelial growth factor, 165 aa form) (Homo sapiens, UniProt P15692-4 P15692-4:27-191); experiment: filter; PBS, 0.01% HSA, 37 C; Kd1, X1 0.56, Kd2 21 nM; settings: tags: gift from N. Ferrara, Genentech; chain copies: 2 (dimer, stated); label: 32P
Sequence (P15692 other isoform, or with tags, fused parts or gaps): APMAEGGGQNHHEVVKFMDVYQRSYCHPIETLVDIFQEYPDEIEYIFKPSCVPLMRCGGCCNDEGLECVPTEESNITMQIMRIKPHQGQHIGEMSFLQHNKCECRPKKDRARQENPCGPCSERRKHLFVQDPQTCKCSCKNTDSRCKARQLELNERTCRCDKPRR
value-type: pKd
On this scale, pKd is minus log10 of a concentration expressed in M (mol/L).

Reported pKd for ligand 12 (ssRNA) RNA: GGGAGCUCAGAAUAAACGCUCAAGCAGACGAAGGGAACCUGCGUCUCGGCACCUUCGACAUGAGGCCCGGAUCCGGC was 9.32
